All values here come from PubChem BioAssay.

assay: probe aNog binding to arrayed compounds – biochemical, biotinylated probe, 635/667 nm fluorescence, primary screen (AID 1115); details: small-molecule microarray, higher = more signal;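 further: probe is biotinylated aNog protein used at 0.15 µg/mL for 1 h at 4 C; z-score combines 667 nm fluorescence of each spot with its signal to noise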
Everything with composite z-score lower than -0.04 is Not met; everything else, including exactly -0.04, is Met.

Example entries and their recorded answers appear below.
- Compound: "CCOC(=O)C[C@H]1[C@H](OC(=O)c2ccccc2-c2ccccc2)[C@@H](NC(=O)c2ccc3ccccc3c2)c2cc(OCCCO)ccc2N1C(=O)c1ccccc1"
  Assigned Class: "Met"
- Compound: "N[C@@H](Cc1ccccc1)C(=O)NCc1cn(Cc2ccccc2)nn1"
  Assigned Class: "Not met"
- Compound: "CCCC=C(CCC)[C@@H](NP(=O)(c1ccccc1)c1ccccc1)c1ccc(-c2ccccc2)cc1"
  Assigned Class: "Met"
- Compound: "O=C1O[C@@H](c2ccccc2)[C@@H](c2ccccc2)N2[C@@H](c3ccc(O)cc3)[C@]3(C(=O)Nc4ccc(C#CCCO)cc43)[C@@H](C(=O)N3CCN(c4ncccn4)CC3)[C@H]12"
  Assigned Class: "Met"

// switching to the query compound
Asked: Textbook exercise: given the entry COCCCNC(=O)[C@@]1(CCC(=O)OC(C)(C)C)N=C(c2ccc(OCCCO)cc2)O[C@H]1c1ccccc1N=[N+]=[N-] , state whether its composite z-score is greater than or equal to -0.04.
Given back: Not met

###

experiment: small molecules captured by biotinylated probe aFST – biochemical, small-molecule microarray, fluorescence 635/667, stem cell growth factor project, primary screen (AID 1086); conditions: higher = more signal;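 further: score merges 667 nm fluorescence with signal-to-noise of each printed compound spot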
// label = Criterion met if composite z-score is not less than 0.1, otherwise Criterion not met

- Molecule: "C=CC[C@]1(C(=O)N2CCOCC2)COC(c2ccc(OCCCO)cc2)=N1"
  Assigned Class: "Criterion met"
- Molecule: "CCOc1cc(C(O)C2C=CC3C(=O)NC(=O)C3N2Nc2ccc(Cl)cc2Cl)ccc1O (centres undefined)"
  Assigned Class: "Criterion not met"
- Molecule: "[N-]=[N+]=Nc1ccccc1[C@@H]1OC(c2ccc(OCCCO)cc2)=N[C@]1(Cc1ccccc1)C(=O)O"
  Assigned Class: "Criterion met"

Asked: Evaluate CCOC(=O)C[C@H]1[C@H](OC(=O)Cc2ccc3c(c2)OCO3)[C@@H](NC(=O)c2ccc3ccccc3n2)c2cc(OCCCO)ccc2N1C(=O)c1ccccc1 : composite z-score at minimum 0.1?
Given back: Criterion met

###

target: Alpha-bungarotoxin (Bungarus multicinctus) (UniProt P60615); assay: compounds binding labelled alpha-BTX control protein – biochemical, small-molecule microarray, Alexa647 label, 635/667 nm fluorescence, artefact control for SMM control protein annotation, profiling panel (AID 1117); details: alpha-BTX-A647 binding fluorescence, higher = more signal
Sequence (P60615 whole entry, looked up): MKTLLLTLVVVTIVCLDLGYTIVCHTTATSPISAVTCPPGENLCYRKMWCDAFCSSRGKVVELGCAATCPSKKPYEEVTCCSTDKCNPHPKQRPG
Everything with composite z-score lower than 0.8 is NOT MET; everything else, including exactly 0.8, is MET.

- Compound: "COCCOC(=O)N1C(=O)[C@@]2(c3cc(C#CCCO)ccc31)[C@H](C(=O)Nc1nc3ccccc3s1)[C@H]1C(=O)O[C@H](c3ccccc3)[C@H](c3ccccc3)N1[C@@H]2c1ccc(O)cc1"
  Assigned Class: "MET"

Asked: Hello, I need to know if [N-]=[N+]=Nc1ccccc1C[C@]1(C(=O)O)COC(c2ccc(OCCCO)cc2)=N1 has measured composite z-score not below 0.8. Thanks!
Given back: NOT MET

Asked: Hi team, for O=C1N(CCS(=O)(=O)c2ccccc2)c2ccccc2[C@H]2OC(c3ccc(OCCCO)cc3)=N[C@@]12Cc1ccccc1 , is the recorded composite z-score at or above 0.8?
Given back: MET

Asked: Determine whether this compound has composite z-score no lower than 0.8: NC(=O)NCC#Cc1ccc2c(c1)[C@]1(C(=O)N2)[C@H](C(=O)N2CCN(c3ncccn3)CC2)[C@H]2C(=O)O[C@H](c3ccccc3)[C@H](c3ccccc3)N2[C@@H]1c1ccc(O)cc1
Given back: NOT MET

Asked: Given C=C(/C(=C/C[C@H](OC(=O)c1ccncc1)c1ccc(CO)o1)c1cnc2ccccc2c1)C(C)C , state whether its composite z-score is at least 0.8.
Given back: MET

###

test: compounds binding Alexa647 anti-His antibody – biochemical, small-molecule microarray, 635 nm fluorescence, artefact control for SMM control protein annotation, primary screen (AID 1128); conditions: higher = more signal;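 further: score merges feature fluorescence with signal-to-noise for each printed compound spot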
Listed here: items and their measured composite z-score.

Worked examples, 8 molecules total:
- Molecule: "CS(=O)(=O)CCOC(=O)C1=CC(CCCO)=CC(c2ccc(CN3CCCC3)cc2)N(Cc2sc3ccccc3c2Cl)C=C1C(=O)OCCS(C)(=O)=O (stereo unspecified)"
  composite z-score: 2.17
- Molecule: "CN(C)CCCCCCNC(=O)[C@@H]1C[C@@H]2C(=O)N3CCC[C@H]3C(=O)N2[C@@H]1c1cccc(OCCO)c1"
  composite z-score: 2.58
- Molecule: "COCC(=C=CC[C@H](O)c1ccc(OCCO)cc1)CCO"
  composite z-score: 0.434
- Molecule: "CC(=O)NCCCC[C@@H]1NC(=O)[C@@H]2C[C@H](C(=O)NCCCCCN)[C@H](c3ccc(O)cc3)N2C1=O"
  composite z-score: 0.367
- Molecule: "CCCN1C(=O)[C@]2(Cc3ccccc31)N=C(c1ccc(OCCCO)cc1)O[C@@H]2c1ccccc1"
  composite z-score: 1.18
- Molecule: "O=C1C2C=CC(C(O)C3CC=CCC3)N(Nc3ccccc3)C2C(=O)N1c1ccccc1 (stereo unspecified)"
  composite z-score: 0.41
- Molecule: "CN1C(=O)C2C=CC(C(O)c3cccn3C)N(Nc3ccc([N+](=O)[O-])cc3[N+](=O)[O-])C2C1=O (stereo unspecified)"
  composite z-score: 0.421
- Molecule: "CC[C@@H]1O[Si](C(C)C)(C(C)C)c2c1cc(-c1cc(C)c(OC)c(C)c1)nc2-c1ccc(Oc2ccccc2)cc1"
  composite z-score: -0.23

Asked: Look up composite z-score for this molecule: COCCOC(=O)N1C(=O)[C@@]2(c3ccccc31)[C@H](c1ccc(O)cc1)N1[C@H](c3ccccc3)[C@H](c3ccccc3)OC(=O)[C@H]1[C@@H]2C(=O)N1CCN(c2ncccn2)CC1
Given back: 0.682

Asked: Would you kindly share the measured composite z-score for CC(CO)N1C(=O)[C@]2(C)C3C(=O)OCCC/C=C\[C@H]3OC23C=CCN(c2ccc(Cl)cc2)C(=O)[C@@H]13 (stereo partly specified) ?
Given back: -0.263

Asked: Would you mind telling me what composite z-score value was observed for COc1ccc([Si](C)(C)[C@@H]2[C@@H](CC(=O)N3CCC[C@H]3CO)O[C@]3(C(=O)N(Cc4cccc(N5C(=O)COc6ccccc65)c4)c4ccccc43)[C@H]2C)cc1 ?
Given back: 1.43

Asked: What value of composite z-score has been reported for the following molecule? CC(c1ccccc1)C(O)C1C=CC2C(=O)N(C)C(=O)C2N1Nc1ccccc1 (stereo unspecified)
Given back: 1.79

###

target: Fibroblast growth factor 10 (Homo sapiens); experiment: compounds binding fibroblast growth factor 10 – biochemical, small-molecule microarray, 635 nm fluorescence, primary screen (AID 1102); settings: FGF10 binding, fluorescence 635 nm, higher = more signal
# composite z-score listing for each entry below
Please respond with just the number, no unit label.

// below: answered compounds
- Compound: "O[C@@H](Cc1ccccc1)[C@@H](/C=C/C1CC1)N(CC#Cc1ccccc1)Cc1ccccc1Br"
  Measurement Kind: "composite z-score"
  Quantitative Result: -1.36
- Compound: "O=C1C2C=CC(C(O)c3cccc(O)c3)N(Nc3ccc([N+](=O)[O-])cc3)C2C(=O)N1c1ccccc1 (stereo not given)"
  Measurement Kind: "composite z-score"
  Quantitative Result: 1.07
- Compound: "NC(=O)[C@@]1(Cc2ccccc2)COC(c2ccc(OCCCO)cc2)=N1"
  Measurement Kind: "composite z-score"
  Quantitative Result: 0.594
- Compound: "CCCNC(=O)[C@@]1(C)c2ccccc2C(=O)N(c2ccc(C)cn2)[C@H]1c1ccc(CO)cc1"
  Measurement Kind: "composite z-score"
  Quantitative Result: -0.779
- Compound: "COc1ccc([Si](C)(C)[C@@H]2[C@@H](CCO)O[C@]3(C(=O)N(Cc4cccc(NC(=O)[C@H](C)O)c4)c4ccccc43)[C@H]2C)cc1"
  Measurement Kind: "composite z-score"
  Quantitative Result: 1.08

Asked: Name the recorded composite z-score for C=CCN1C(=O)[C@]2(CCS(=O)(=O)c3ccccc3)N=C(c3ccc(OCCCO)cc3)O[C@@H]2c2ccccc21 .
Given back: 0.732

Asked: What value of composite z-score has been reported for the following compound? C=CC[C@@H](OC(=O)Nc1ccc(OC)cc1)c1ccc(O)c(F)c1
Given back: -0.549

Asked: If you can, please state the reported composite z-score value of C=CCNC(=O)[C@@H]1[C@H]2C(=O)O[C@H](c3ccccc3)[C@H](c3ccccc3)N2[C@H](c2ccccc2OCCO)[C@@]12C(=O)N(C(=O)OCCOC)c1ccc(C#CC3(O)CCCCCC3)cc12 .
Given back: 0.87

Asked: Which composite z-score is listed for CCCN1C(=O)[C@@]2(Cc3ccccc31)N=C(c1ccc(OCCCO)cc1)O[C@H]2c1ccccc1 ?
Given back: 0.988

Asked: Given the entry O=C1O[C@@H](c2ccccc2)[C@@H](c2ccccc2)N2[C@@H](c3ccc(OCCO)cc3)[C@]3(C(=O)Nc4ccc(C#CC5=CCCCC5)cc43)[C@@H](C(=O)NC[C@H](O)c3ccccc3)[C@H]12 , report its measured composite z-score.
Given back: 1.4

Asked: Param item = CC(C)C[C@@H]1NC(=O)[C@@H]2C[C@H](C(=O)NCCCCCCN)[C@H](c3cccc(OCCO)c3)N2C1=O ; retrieve measured composite z-score.
Given back: 1.13

Asked: What measured composite z-score goes with COCCCNC(=O)[C@@H]1c2ccccc2C(=O)N(C(C)C)[C@H]1c1ccc(CO)cc1 ?
Given back: -0.346

Asked: What value of composite z-score has been recorded for this entry: CC(C)=C1C(=O)C(c2ccccc2)=C2CN3C(=O)N(CCc4ccccc4)C(=O)[C@]3(Cc3ccc(C(F)(F)F)cc3)[C@H]21
Given back: -0.649

Asked: Need composite z-score of C[N+](C)(C)CCCC[C@@H]1NC(=O)[C@@H]2C[C@H](C(=O)NCCCCCCN)[C@H](c3cccc(OCCO)c3)N2C1=O , thanks.
Given back: 0.766

Asked: Using the record for COc1cc(NN2C(C(O)c3ccc(N(C)C)cc3)C=CC3C(=O)N(c4ccccc4)C(=O)C32)cc(OC)c1OC (stereo not given) , report its composite z-score.
Given back: 0.513
